# systemTested: T1, human BACE1 ECD
# T1 construct: analyte of the Octet assay (200 nM) and enzyme of the first short substrate assay; also called human BACE1 extracellular domain
# T1 sequence (single chain, as listed by the source limits assumed): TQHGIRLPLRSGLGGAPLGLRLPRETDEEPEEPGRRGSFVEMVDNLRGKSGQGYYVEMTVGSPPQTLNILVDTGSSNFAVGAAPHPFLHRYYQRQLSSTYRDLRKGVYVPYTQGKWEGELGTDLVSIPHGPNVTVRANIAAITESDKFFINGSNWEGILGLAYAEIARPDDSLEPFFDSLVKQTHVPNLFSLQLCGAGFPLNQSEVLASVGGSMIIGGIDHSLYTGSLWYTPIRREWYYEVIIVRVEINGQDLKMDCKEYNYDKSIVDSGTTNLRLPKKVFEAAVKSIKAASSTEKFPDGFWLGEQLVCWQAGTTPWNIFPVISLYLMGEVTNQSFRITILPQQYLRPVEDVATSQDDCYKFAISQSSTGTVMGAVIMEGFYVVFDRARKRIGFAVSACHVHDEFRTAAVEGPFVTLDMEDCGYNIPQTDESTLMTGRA
# assayText: Octet, pH 5.0;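 note: antibodies captured on anti-human capture sensor tips, dissociation monitored in PBS with BSA buffer, kinetics fitted with a one-to-one binding model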
readout: Kd (nM)
Answers are plain numbers, in nM.

Take a look at these entries with their results.
{"binder": "5983 (antibody, V domains shown, anti-BACE1 IgG) VH: QLQLQESGPGLVKPSETLSLTCTVSGGSISSSSYYWGWIRQPPGKGLEWIGNIYYSGSTYYNPSLRSRVTISVDTSKNQFFLKLSSVTAADTAVYYCARLGHGYNYFDLWGRGTLVTVSS VL: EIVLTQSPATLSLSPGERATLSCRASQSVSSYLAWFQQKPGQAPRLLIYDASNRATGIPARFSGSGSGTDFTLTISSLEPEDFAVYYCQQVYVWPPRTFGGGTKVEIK", "readout": "Kd", "valueObserved": 0.34}
{"binder": "5984 (antibody, V domains shown, anti-BACE1 IgG) VH: QLQLQESGPGLVKPSETLSLTCTVSGGSISSSSYYWGWIRQPPGKGLEWIGNIYYSGSTYYNPSLKGRVTISVDTSKNQFSLKLSSVTAADTAVYYCARLGHGYNYFDLWGRGTLVTVSS VL: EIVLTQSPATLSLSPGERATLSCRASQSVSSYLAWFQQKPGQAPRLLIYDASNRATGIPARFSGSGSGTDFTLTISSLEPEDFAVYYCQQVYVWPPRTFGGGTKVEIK", "readout": "Kd", "valueObserved": 0.34}

Please report the recorded Kd for 5905 (antibody, V domains shown, anti-BACE1 IgG) VH: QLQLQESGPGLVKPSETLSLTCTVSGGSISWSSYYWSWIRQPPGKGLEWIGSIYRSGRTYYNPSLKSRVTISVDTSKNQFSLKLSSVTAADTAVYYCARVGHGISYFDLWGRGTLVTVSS VL: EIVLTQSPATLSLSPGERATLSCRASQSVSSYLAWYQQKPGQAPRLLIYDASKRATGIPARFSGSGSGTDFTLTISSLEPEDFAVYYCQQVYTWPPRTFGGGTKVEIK .
1.1

Cited source for all entries: patent US20180057604A1
